- Tested on: basal gastric acid secretion
- PROTOCOL TEXT: Inhibition of total acid output (basal gastric acid secretion) in the acute gastric fistula rat
- Type: in vivo, female Sprague-Dawley rats
- TEST CONTEXT: Rattus norvegicus, 2 h; intraduodenal, 10 mg/kg, 120 min; read-out: % Inhibition of total acid output, after 120 minutes (B)
Task for the reader: assign each of the following compounds its reported inhibition in vivo at 10 mg/kg.
Express it in %; write the number only.

Give the reported inhibition in vivo at 10 mg/kg for `CCCCC[C@H](O)/C=C/[C@@H]1[C@@H](C/C=C\CCCC(=O)O)[C@@H](O)C[C@H]1C(C)C` (system: basal gastric acid secretion).
35

What inhibition in vivo at 10 mg/kg appears in the records for this compound with basal gastric acid secretion? CCCCCC(C)/C=C/[C@@H]1[C@@H](C/C=C\CCCC(=O)O)[C@@H](O)C[C@H]1C (stereo partly shown)
20

Give recorded inhibition in vivo at 10 mg/kg with basal gastric acid secretion for the following compound: CCCCC[C@H](O)/C=C/[C@H]1C(SC(C)=O)CC(=O)[C@@H]1C/C=C\CCCC(=O)O (stereo partly drawn) [l-11-acetylthio-11-deoxyprostaglandin-E2]
68

Entry `CCCCC[C@H](O)/C=C/[C@H]1[C@@H](CO)C[C@H](O)[C@@H]1C/C=C\CCCC(=O)O` , system basal gastric acid secretion: what inhibition in vivo at 10 mg/kg was measured?
43

====

- Test system: gastric acid secretion
- PROTOCOL TEXT: Gastric acid secretion inhibition, modified Shay rat procedure
- Assay type: in vivo, rats (male, CFE strain)
- TEST CONTEXT: Rattus norvegicus; intraduodenal, 50 mg/kg; read-out: Percent inhibition of gastric acid secretion
Tag: met if measured inhibition in vivo at 50 mg/kg is not below 40%, not met if it is.

API: above_or_equal(metric=inhibition in vivo at 50 mg/kg, cutoff=40%) for item CCCCC[C@H](O)/C=C/[C@H]1C(C#N)CC(=O)[C@@H]1C/C=C\CCCC(=O)O (stereo partly drawn) [l-11α/β-cyano-11-deoxyprostaglandin-E2, 11α/β-cyano-11-deoxy-prostaglandin E2]
met

Does `CCCCC[C@H](O)/C=C/[C@@H]1[C@@H](C/C=C\CCCC(=O)O)[C@@H](O)C[C@H]1SC` have a reported inhibition in vivo at 50 mg/kg of at least 40%?
met

Is inhibition in vivo at 50 mg/kg at least 40%? Consider `CCCCC[C@H](O)/C=C/[C@H]1[C@H](C[N+](=O)[O-])C[C@H](O)[C@@H]1C/C=C\CCCC(=O)O`
not met

Is inhibition in vivo at 50 mg/kg for `CCCCC[C@H](O)/C=C/[C@@H]1[C@@H](C/C=C\CCCC(=O)O)[C@@H](O)C[C@H]1C(N)=O` at or above 40%?
not met

Determine whether measured inhibition in vivo at 50 mg/kg meets or exceeds 40% for `CCCCC[C@H](O)/C=C/[C@@H]1[C@@H](C/C=C\CCCC(=O)O)[C@@H](O)C[C@H]1C`
met

Say whether CCCCCC(C)/C=C/[C@H]1[C@H](C)CC(=O)[C@@H]1C/C=C\CCCC(=O)O (stereo partly drawn) shows inhibition in vivo at 50 mg/kg of 40% or more.
met

API: above_or_equal(metric=inhibition in vivo at 50 mg/kg, cutoff=40%) for item CCCCC[C@H](O)/C=C/[C@@H]1[C@@H](C/C=C\CCCC(=O)O)C(=O)C[C@H]1C(C)C [l-11α-isopropyl-11-deoxyprostaglandin-E2, 11-deoxy-11α-isopropyl-prostaglandin E2]
met

Is the recorded value of inhibition in vivo at 50 mg/kg equal to or greater than 40% for this compound? CCCCC[C@H](O)/C=C/[C@H]1C(C#N)CC(=O)[C@@H]1C/C=C\CCCC(=O)OC (stereo partly drawn)
not met

Value source: patent US4444691A
